- Tested on: OVCAR-8 ovarian
- Method: NCI tumour cell line growth inhibition, 48 h
Square brackets hold non-standard residues; d marks the D form. Peptide text beside a SMILES is read from it. Phe(4-NO2) = N[CH](Cc1ccc([N+](=O)[O-])cc1)C(=O)O
Test readout: TGI

Recorded TGI, per entry:
Compound	TGI
C[C@H](C(O)CC(=O)C(C)(C)O)[C@H]1CC[C@@]2(C)[C@@H]3CC[C@H]4C(C)(C)[C@@H](OC5OC(COC6OC(CO)C(O)C(O)C6O)C(O)C(O)C5O)CC[C@]4(C)C3=CC[C@]12C (stereo partly specified)	> 100 µM
COc1c(Cl)[c]([Hg][O]C(C)=O)c(NCC(C)=O)c(OC)[c]1[Hg][O]C(C)=O	32.4 µM
COc1ccc(Br)c(C=Nc2cccc3cc(OC)c(OC)cc23)c1	> 59.9 µM
CN(C)c1c(C2CC(O)C(CO)O2)c(=O)c1=O (stereo unspecified)	> 100 µM
CCCCCCC/C=C1\CCC(CN(C)C)C1=O (stereo unspecified)	18 µM

I need TGI for every entry listed below, if you could help.
1. COC(=O)CCC(NC(=O)C(CCC(=O)OC)NC(=O)C(CCC(=O)OC)NC(=O)C(CCC(=O)OC)NC(=O)C(CCC(=O)OC)NC(=O)C(Cc1ccc([N+](=O)[O-])cc1)NC(=O)C(CCC(=O)OC)NC(=O)C(CCC(=O)OC)NC(=O)C(CCC(=O)OC)NC(=O)C(CCC(=O)OC)NC(=O)C(CCC(=O)OC)NC(C)=O)C(N)=O (stereo unspecified) (Ac-E(OMe)E(OMe)E(OMe)E(OMe)E(OMe)[Phe(4-NO2)]E(OMe)E(OMe)E(OMe)E(OMe)E(OMe)-NH2; configuration not given here)
2. Nc1nc(CC2(O)CCCCC2)cc(-c2ccccc2)n1

["> 100 µM", "> 84.7 µM"]

Parameters: items (list). Returns: TGI for each item.
1. CCN(CC)/[N+]([O-])=N/OCC(C)O (stereo unspecified)
2. O=C(Nc1ccc(-n2ccc3c(NC(=O)c4ccccc4)nccc32)cc1)c1ccc(N2CCOCC2)c(C(F)(F)F)c1
3. COc1cc2c(cc1OC)-c1ncc3cc(OC)c(OC)c(OC)c3c1C2
4. CCCCCN(CCCCC)C(=O)[C@H](CCC(=O)OCc1ccccc1)NC(=O)c1cc2ccccc2[nH]1
5. O=C1c2cc([N+](=O)[O-])sc2C(=O)c2cc([N+](=O)[O-])sc21
6. COc1ccc(S(=O)(=O)Nc2ccc(-c3csc(N4C(=O)/C(=C/c5cccs5)N=C4c4ccccc4)n3)cc2)cc1Cl

["> 100 µM", "56.2 µM", "43.1 µM", "> 100 µM", "18.6 µM", "> 100 µM"]

Batch lookup, TGI per entry.
1. O=C(O)CNC(=O)C1NC(C(F)(F)F)(C(F)(F)F)OC1(C(F)(F)F)C(F)(F)F (stereo unspecified)
2. CCOc1ccc(N=Cc2ccc3ccccc3n2)cc1
3. COC(=O)C1=C(O)c2cc3c(cc2[C@H](c2cc(OC)c(OC)c(OC)c2)C1)OCO3

1. > 100 µM
2. > 100 µM
3. > 100 µM

This collection of values is drawn from PubChem BioAssay (NCI).
